Measured IC50 by item
- system: Hematopoietic PGD2 Synthase (Homo sapiens, UniProt O60760)
- Sequence (O60760 whole entry): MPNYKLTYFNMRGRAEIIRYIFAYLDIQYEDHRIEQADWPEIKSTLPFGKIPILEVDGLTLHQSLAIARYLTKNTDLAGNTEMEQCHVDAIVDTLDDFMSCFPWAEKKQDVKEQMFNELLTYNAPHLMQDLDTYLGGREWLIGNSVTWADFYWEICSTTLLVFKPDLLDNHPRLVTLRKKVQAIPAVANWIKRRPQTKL
- experimental_protocol: Fluorescence Polarization Assay (Assay 1)
- Format: binding
- condition_description: assigned
assay_metric: IC50 (µM)

| compound | assay_metric | reading |
| --- | --- | --- |
| O=C(Nc1ccc2[nH]ncc2c1)c1cnc(-c2ccccc2)nc1 [Example 83] | IC50 | 0.023 |
| O=C(Nc1ccc2c(c1)CS(=O)(=O)N2)c1cnc(-c2ccccc2)nc1 [Example 8] | IC50 | 0.0025 |
| O=C(NCCc1ccc2c(c1)OCO2)c1cnc(-c2ccccc2)nc1 [Example 82] | IC50 | 0.002 |
| O=C(NCCc1c[nH]cn1)c1cnc(-c2ccccc2)nc1 [Example 34] | IC50 | 0.035 |
| O=C(NC1CCN(Cc2ncc[nH]2)CC1)c1cnc(-c2ccccc2)nc1 [Example 9] | IC50 | 0.002 |
| O=C(NCCN1CCNC1=O)c1cnc(-c2ccccc2)nc1 [Example 33] | IC50 | 0.032 |
| O=C(NCc1ccc(-c2cnns2)cc1)c1cnc(-c2ccccc2)nc1 [Example 84] | IC50 | 0.0065 |
| O=C(Nc1ccccc1)c1cnc(C2CCCCC2)nc1 [Example 114] | IC50 | 4.96 |

Data origin, for the record: patent US8202863B2
